self-cleavage listing for selected variants.
B1: CPEB3 Ribozyme (parent)
chain: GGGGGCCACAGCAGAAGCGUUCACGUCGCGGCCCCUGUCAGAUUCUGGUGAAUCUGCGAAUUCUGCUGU

Variants of: B1
Assay: self-cleavage, relative activity (ratio to wild type); higher = more cleavage; co-transcriptional

// solved cases for self-cleavage follow
A40G G58A; 0.912
A51C C66G; 0.777
A51C G58U; 1.03
A52U A60C; 0.47

State its self-cleavage for this variant: U38G G56C
0.237

Look up self-cleavage of U20G G48A and report it.
0.127

Please list self-cleavage recorded for the variant G4A C57U
0.223

Write down self-cleavage measured for item C18G C63U
0.136

Given C39U U67A , respond with its self-cleavage.
0.902

Return the recorded self-cleavage value; entry: G3A C7U
0.298

Tell me self-cleavage reported for G5U C24U
0.0968

Report measured self-cleavage; entry is U26A G41C
0.54

Look up self-cleavage of G50C U55C and report it.
0.486

# return recorded self-cleavage for entry U43A A51U
0.939

Indicate its recorded self-cleavage; the variant in question is U44C A59G
0.958

// Input: C12A U64G . Output its self-cleavage only.
0.674

Give the reported value of self-cleavage for this record: C39U U53G
0.61

Look up self-cleavage of G11U C33A and report it.
0.765

Given the variant C35U U46C , write its reported self-cleavage.
0.976

Report self-cleavage for G5A G31A
0.158
